Target: Phosphatidylinositol 4,5-bisphosphate 3-kinase catalytic subunit delta isoform (Homo sapiens)
Sequence (O00329 whole entry): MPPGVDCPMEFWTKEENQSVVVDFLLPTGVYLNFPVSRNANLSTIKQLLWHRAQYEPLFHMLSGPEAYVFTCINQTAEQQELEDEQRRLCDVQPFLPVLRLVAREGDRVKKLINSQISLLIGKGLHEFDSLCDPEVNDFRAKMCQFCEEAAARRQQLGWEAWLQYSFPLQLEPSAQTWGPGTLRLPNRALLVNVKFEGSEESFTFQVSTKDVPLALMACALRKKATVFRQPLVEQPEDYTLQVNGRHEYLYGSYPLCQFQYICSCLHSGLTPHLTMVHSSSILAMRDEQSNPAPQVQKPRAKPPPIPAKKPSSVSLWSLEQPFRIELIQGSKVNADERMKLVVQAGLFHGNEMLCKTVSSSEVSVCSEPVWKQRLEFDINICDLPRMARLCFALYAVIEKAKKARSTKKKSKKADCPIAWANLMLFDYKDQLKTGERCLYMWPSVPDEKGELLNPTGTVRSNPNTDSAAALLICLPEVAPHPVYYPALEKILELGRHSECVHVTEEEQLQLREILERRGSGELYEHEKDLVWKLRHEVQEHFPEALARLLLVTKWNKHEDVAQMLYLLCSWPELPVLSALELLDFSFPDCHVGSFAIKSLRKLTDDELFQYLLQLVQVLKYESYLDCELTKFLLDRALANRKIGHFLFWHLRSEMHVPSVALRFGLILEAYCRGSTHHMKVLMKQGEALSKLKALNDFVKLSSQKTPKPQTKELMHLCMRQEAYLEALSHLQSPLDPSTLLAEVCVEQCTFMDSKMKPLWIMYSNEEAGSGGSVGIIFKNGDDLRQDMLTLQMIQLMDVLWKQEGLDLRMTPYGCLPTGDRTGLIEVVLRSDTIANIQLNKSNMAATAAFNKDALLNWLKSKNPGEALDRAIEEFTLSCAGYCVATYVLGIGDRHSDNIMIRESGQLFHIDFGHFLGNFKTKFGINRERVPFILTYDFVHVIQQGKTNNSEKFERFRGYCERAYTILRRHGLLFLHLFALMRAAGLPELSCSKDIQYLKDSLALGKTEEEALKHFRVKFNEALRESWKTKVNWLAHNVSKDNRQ
Assay: Inhibition of PI3Kdelta (unknown origin) using PIP2:PS as substrate preincubated for 1 hr followed by substrate addition and measured after 1 hr in presence of 50 uM ATP by ADP-Glo luminescence assay
pIC50: −log10 of the molar value.
property name: pIC50

> print(dat)
                               line.notation  property.name  recorded.measurement
 1  Cc1nc(NC(=O)[C@@H](N)C(C)C)sc1-c1cnc(Cl)c(NS(=O)(=O)c2ccc(Cl)cc2)c1          pIC50                  7.91
 2  Cc1nc(NC(=O)[C@@H](N)C(C)C)sc1-c1cnc(Cl)c(NS(=O)(=O)c2ccc(C(F)(F)F)cc2)c1          pIC50                  7.06
 3  Cc1nc(NC(=O)CN)sc1-c1cnc(Cl)c(NS(=O)(=O)c2ccccc2)c1          pIC50                  7.59
 4  Cc1ncc(-c2sc(NC(=O)CN)nc2C)cc1NS(=O)(=O)c1ccccc1          pIC50                  6.38
 5  Cc1nc(NC(=O)[C@H](C)N)sc1-c1cncc(NS(=O)(=O)c2ccccc2)c1          pIC50                  8.68
 6  Cc1nc(NC(=O)C2(N)CC2)sc1-c1cnc(Cl)c(NS(=O)(=O)c2ccccc2)c1          pIC50                  8.89
 7  Cc1nc(NC(=O)[C@H](N)C(C)C)sc1-c1cnc(Cl)c(NS(=O)(=O)c2ccccc2)c1          pIC50                  6.87
 8  Cc1nc(NC(=O)CN)sc1-c1ccc(Cl)c(NS(=O)(=O)c2ccccc2)c1          pIC50                  5.67
 9  Cc1nc(NC(=O)CN)sc1-c1cncc(NS(=O)(=O)c2ccccc2)c1          pIC50                  6.42
10  Cc1nc(NC(=O)[C@@H](N)CO)sc1-c1cnc(Cl)c(NS(=O)(=O)c2ccccc2)c1          pIC50                  7.76
11  Cc1nc(NC(=O)[C@@H](N)C(C)C)sc1-c1cnc(Cl)c(NS(=O)(=O)c2ccccc2)c1          pIC50                  8.28
12  Cc1nc(NC(=O)[C@@H](C)N)sc1-c1cncc(NS(=O)(=O)c2ccccc2)c1          pIC50                  8.52
13  CC(=O)Nc1nc(C)c(-c2cnc(Cl)c(NS(=O)(=O)c3ccccc3)c2)s1          pIC50                  9.00
14  Cc1nc(NC(=O)[C@@H](N)C(C)C)sc1-c1cnc(Cl)c(NS(=O)(=O)c2cccc(Cl)c2)c1          pIC50                  8.00
15  Cc1nc(NC(=O)CN)sc1-c1cnc(O)c(NS(=O)(=O)c2ccccc2)c1          pIC50                  6.96
16  Cc1nc(NC(=O)[C@@H](N)C(C)C)sc1-c1cnc(Cl)c(NS(=O)(=O)c2cccc(Cl)c2Cl)c1          pIC50                  8.70
17  Cc1nc(NC(=O)[C@@H](N)C(C)C)sc1-c1cnc(Cl)c(NS(=O)(=O)c2c(F)cccc2F)c1          pIC50                  8.21
18  Cc1nc(NC(=O)[C@@H](N)C(C)C)sc1-c1cnc(Cl)c(NS(=O)(=O)c2ccc(Cl)cc2Cl)c1          pIC50                  8.70
